- subject_of_test: human CCR5 (Homo sapiens, UniProt P51681)
- Construct: expressed in transfected cells; host or cells: CHO-K1 cells, electroporated with plasmid pCKR5 (pcDNA3.1 backbone), geneticin-selected (CHO/CCR5)
- Sequence (P51681 whole entry): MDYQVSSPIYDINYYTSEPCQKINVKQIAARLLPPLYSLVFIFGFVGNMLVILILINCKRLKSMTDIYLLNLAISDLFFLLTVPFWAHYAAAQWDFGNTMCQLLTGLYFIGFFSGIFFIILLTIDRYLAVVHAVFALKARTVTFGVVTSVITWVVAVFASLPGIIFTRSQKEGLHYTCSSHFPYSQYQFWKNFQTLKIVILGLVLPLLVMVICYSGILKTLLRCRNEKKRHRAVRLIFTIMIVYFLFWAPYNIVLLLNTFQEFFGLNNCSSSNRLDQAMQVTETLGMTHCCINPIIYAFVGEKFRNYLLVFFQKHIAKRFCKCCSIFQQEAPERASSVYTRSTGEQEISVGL
- test_protocol: Inhibition of [125I]-RANTES binding to human CCR5 in CHO/CCR5 cells (CCR5 antagonistic activity)
- conditions: Test Compound 1 μM, 100 pM [125I]-RANTES, room temperature, 40 minutes, read-out: Inhibition Rate (CCR5 binding)

| compound | subject_of_test | readout_units | inhibition at 1 µM |
| --- | --- | --- | --- |
| CCCOCCOc1ccc(-c2ccc3c(c2)C=C(C(=O)Nc2ccc(CN(C)C4CCOCC4)cc2)CCS3(=O)=O)cc1Cl [Compound 74] | human CCR5 (Homo sapiens, UniProt P51681) | % | 94 |
| CCCCOc1ccc(-c2ccc3c(c2)C=C(C(=O)Nc2ccc(CN(C)C4CCOCC4)cc2)CCS3(=O)=O)cc1 [Compound 30] | human CCR5 (Homo sapiens, UniProt P51681) | % | 99 |
| CCOc1ccc(-c2ccc3c(c2)C=C(C(=O)Nc2ccc(CN(C)C4CCOCC4)cc2)CCS3(=O)=O)cc1 [Compound 4] | human CCR5 (Homo sapiens, UniProt P51681) | % | 91 |
| CCCOCCOc1ccc(-c2ccc3c(c2)C=C(C(=O)Nc2ccc(CN(C)C4CCOCC4)cc2)CCS3(=O)=O)cc1 [Compound 97] | human CCR5 (Homo sapiens, UniProt P51681) | % | 92 |
| CCCOCCOc1ccc(-c2ccc3c(c2)C=C(C(=O)Nc2ccc(CN(C)C4CCOCC4)cc2)CCS3(=O)=O)cc1OCC [Compound 73] | human CCR5 (Homo sapiens, UniProt P51681) | % | 94 |
| CCN(CC)c1ccc(-c2ccc3c(c2)C=C(C(=O)Nc2ccc(CN(C)C4CCOCC4)cc2)CCS3(=O)=O)cc1 [Compound 54] | human CCR5 (Homo sapiens, UniProt P51681) | % | 99 |
| CCOCCOc1c(C)cc(-c2ccc3c(c2)C=C(C(=O)Nc2ccc(CN(C)C4CCOCC4)cc2)CCS3(=O)=O)cc1C [Compound 124] | human CCR5 (Homo sapiens, UniProt P51681) | % | 97 |
| CCOCCOc1ccc(-c2ccc3c(c2)C=C(C(=O)Nc2ccc(CN(C)C4CCOCC4)cc2)CCS3(=O)=O)cc1 [Compound 84] | human CCR5 (Homo sapiens, UniProt P51681) | % | 97 |
| CCCCOCCOc1ccc(-c2ccc3c(c2)C=C(C(=O)Nc2ccc(CN(C)C4CCOCC4)cc2)CCS3(=O)=O)cc1 [Compound 98] | human CCR5 (Homo sapiens, UniProt P51681) | % | 98 |
| CCSc1ccc(-c2ccc3c(c2)C=C(C(=O)Nc2ccc(CN(C)C4CCOCC4)cc2)CCS3(=O)=O)cc1 [Compound 44] | human CCR5 (Homo sapiens, UniProt P51681) | % | 96 |
| CCCOc1ccc(-c2ccc3c(c2)C=C(C(=O)Nc2ccc(CN(C)C4CCOCC4)cc2)CCS3(=O)=O)cc1OCC [Compound 125] | human CCR5 (Homo sapiens, UniProt P51681) | % | 92 |
| CCOCCCc1ccc(-c2ccc3c(c2)C=C(C(=O)Nc2ccc(CN(C)C4CCOCC4)cc2)CCS3(=O)=O)cc1 [Compound 123] | human CCR5 (Homo sapiens, UniProt P51681) | % | 94 |
| CCCc1ccc(-c2ccc3c(c2)C=C(C(=O)Nc2ccc(CN(C)C4CCOCC4)cc2)CCS3(=O)=O)cc1 [Compound 27] | human CCR5 (Homo sapiens, UniProt P51681) | % | 100 |
| CCOCCOc1ccc(-c2ccc3c(c2)C=C(C(=O)Nc2ccc(CN(C)C4CCOCC4)cc2)CCS3(=O)=O)cc1C [Compound 129] | human CCR5 (Homo sapiens, UniProt P51681) | % | 95 |
| CC(C)OCCOc1ccc(-c2ccc3c(c2)C=C(C(=O)Nc2ccc(CN(C)C4CCOCC4)cc2)CCS3(=O)=O)cc1 [Compound 111] | human CCR5 (Homo sapiens, UniProt P51681) | % | 95 |
| CCCOCCOc1ccc(-c2ccc3c(c2)C=C(C(=O)Nc2ccc(CN(C)C4CCOCC4)cc2)CCS3(=O)=O)cc1C [Compound 75] | human CCR5 (Homo sapiens, UniProt P51681) | % | 95 |
| CCCOc1ccc(-c2ccc3c(c2)C=C(C(=O)Nc2ccc(CN(C)C4CCOCC4)cc2)CCS3(=O)=O)cc1 [Compound 29] | human CCR5 (Homo sapiens, UniProt P51681) | % | 100 |
